Origin of the recorded values: paper PMC10938783

- measurement-notes: Pharmacokinetic study of oral administration
- Format: in vivo
- details: mouse, blood, BALB/c male mice, 100 mg/kg p.o., read-out: CLz/F (converted)

item-smiles | CL/F (mL/min/kg)
COc1cc(N)cc2c1nc(C(F)F)n2-c1nc(N2CCCOCC2)nc(N2CCOCC2)n1 | 179

----------
- measurement-notes: Pharmacokinetic study of oral administration
- Format: in vivo
- details: mouse, blood, BALB/c male mice, 100 mg/kg p.o.
value-kind: half-life (h)

item-smiles | value-kind | measured-result
COc1cc(N)cc2c1nc(C(F)F)n2-c1nc(N2CCCOCC2)nc(N2CCOCC2)n1 | half-life | 7.19
